molecules and their reported TGI
system: MDA-MB-435; assay: NCI tumour cell line growth inhibition, 48 h
Where a SMILES comes first, the peptide text is derived from it. The star is where a group is joined. Boc = CC(C)(C)OC(=O)*; tBu = CC(C)(C)*

[
  {
    "molecule": "Cc1cc2c3c(c1)CCCN3CCC2",
    "value": "> 10 µM"
  },
  {
    "molecule": "FC(F)(F)c1cnc(N/N=C(/c2ccccc2)c2ccccn2)c(Cl)c1",
    "value": "> 100 µM"
  },
  {
    "molecule": "CC(OC(C)(C)C)C(NC(=O)C(N)CCCCNC(=O)OC(C)(C)C)C(=O)NC(Cc1ccccc1)C(=O)O (stereo not given) (H-Lys(Boc)-Thr(tBu)-Phe-OH; configuration not given here)",
    "value": "> 100 µM"
  }
]

Data request, read-out TGI, for OC1CSCCSCCCSCCSC1
> 100 µM

Data request, read-out TGI, for Cn1c(CC(O)c2nc3ccccc3n2C)nc2ccccc21 (stereo not given)
> 44.4 µM

Data request, read-out TGI, for CN(C)CCS(=O)(=O)Nc1cc(-c2ccc3ncnc(Nc4ccc(F)c(Cl)c4)c3c2)cnc1Cl
3.04 µM

Data request, read-out TGI, for O=C1c2ccccc2/C=C\C(c2ccccc2)=N/N1c1ccccc1Cl
16.8 µM

Data request, read-out TGI, for CN(CCCNC(=O)c1c2ccc3ccccc3c2nn1C)CCCNC(=O)c1c2ccc3ccccc3c2nn1C
6.09 µM

----------
test system: NCI-H522 lung; test: NCI tumour cell line growth inhibition, 48 h
compounds and their reported TGI

Solved cases (6 shown):
[
  {
    "compound": "CC(=O)OC1COC(Oc2c(C)c3c4c(c2O)[C@@H](C)CC[C@@H]4[C@@H](C)C[C@H]3C=C(C)C)C(O)C1O (stereo partly drawn)",
    "TGI": "> 100 µM"
  },
  {
    "compound": "O=C(NN1C(=O)C(Cl)C1c1c(O)ccc2ccccc12)c1ccccc1O (stereo not drawn)",
    "TGI": "> 100 µM"
  },
  {
    "compound": "Cn1c(CC(O)c2nc3ccccc3n2C)nc2ccccc21 (stereo not drawn)",
    "TGI": "> 8.21 µM"
  },
  {
    "compound": "Cn1c(=O)c(C(=O)NC23CC4CC(CC(C4)C2)C3)c(O)c2ccccc21",
    "TGI": "> 100 µM"
  },
  {
    "compound": "Cc1cc2c3c(c1)CCCN3CCC2",
    "TGI": "> 10 µM"
  },
  {
    "compound": "O[C@]12c3ccccc3C1CCCCC2N1CCOCC1 (stereo partly drawn)",
    "TGI": "> 100 µM"
  }
]

Data request, read-out TGI, for CC1(C)CC(O)CC(C)(C)N1.CC1(C)CC(O)CC(C)(C)N1.CC1(C)CC(O)CC(C)(C)N1.CC1(C)CC(O)CC(C)(C)N1.Cl.[Ti]
> 100 µM

Data request, read-out TGI, for C/C(CC(=O)Nc1cccc(Cl)c1C)=N\N=C(N)N
> 100 µM

----------
test system: NCI-H522 lung; assay: NCI tumour cell line growth inhibition, 48 h
compounds and their reported TGI

Solved cases (3 shown):
[
  {
    "compound": "O=c1c2ccccc2n2cnc3ccc(NCCNCCO)c1c32",
    "TGI": "6.2 µM"
  },
  {
    "compound": "CC(C)=NNc1ncnc2nc[nH]c12",
    "TGI": "32.2 µM"
  },
  {
    "compound": "Cc1ccc(C=C(C(=O)O)C(=O)O)o1",
    "TGI": "> 100 µM"
  }
]

Data request, read-out TGI, for COC(=O)c1ccccc1/C=C1\Cc2ccc3ccccc3c2C1C (stereo not drawn)
> 100 µM

Data request, read-out TGI, for Cc1c(C)c2ccc(OC(C)C(=O)O)cc2oc1=O (stereo not drawn)
> 100 µM

Data request, read-out TGI, for OC1CSCCSCCCSCCSC1
> 100 µM

Data request, read-out TGI, for Cc1cc(C)nc(NC(=S)Nc2ccc(Cl)cc2)c1
39.1 µM

Data request, read-out TGI, for CSc1nc(C)cc(=O)n1C1OC(COC(C)=O)C(OC(C)=O)C(OC(C)=O)C1OC(C)=O (stereo not drawn)
> 100 µM
